testedTarget: T1, CH2-4 constant domains of human IgE linked to a transmembrane protein, on 293 cells (human, UniProt P01854-1 104-428)
T1 construct: domain: CH2-4 constant domains; also called human IgE-expressing 293 cells
T1 sequence (P01854 other isoform, or with tags, fused parts or gaps): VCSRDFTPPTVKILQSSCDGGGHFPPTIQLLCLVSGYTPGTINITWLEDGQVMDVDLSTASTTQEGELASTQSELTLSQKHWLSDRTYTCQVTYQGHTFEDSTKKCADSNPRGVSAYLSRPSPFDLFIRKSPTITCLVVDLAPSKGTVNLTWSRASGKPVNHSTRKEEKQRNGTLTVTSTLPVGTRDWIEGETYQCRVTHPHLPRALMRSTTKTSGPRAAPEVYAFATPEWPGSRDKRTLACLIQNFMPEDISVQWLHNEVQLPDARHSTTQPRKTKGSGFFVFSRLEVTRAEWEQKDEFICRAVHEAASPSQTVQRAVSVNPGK
assayNotes: flow cytometry, 293 cells expressing human IgE CH2-4
readoutKind: Kd (nM)
Express the result in nM but write the number alone.

# return recorded Kd for entry hzB10v1-NNT (Fc fusion, monomeric) VHH-Fc: EVQLLESGGGLVQPGGSLRLSCVASGLTFSSYNMGWLRQAPGKEREFVGMSGSSSTSTYYADSVKGRFTISRDNSKNTVYLQMNSLKPEDTAVYYCAARRMLSTYWSDRSWDFWGQGTQVTVKPGGPSVFLFPPKPKDTLMISRTPEVTCVVVDVSHEDPEVKFNWYVDGVEVHNAKTKPREEQYNSTYRVVSVLTVLHQDWLNGKEYKCKVSNKALPAPIEKTISKAKGQPREPQVYTLPPSRDELTKNQVNLTCLVKGFYPSDIAVEWESNGQPENNYKTTPPVLDSDGSFFLNSTLTVDKSRWQQGNVFSCSVMHEALHNHYTQKSLSLSPGK
1.37
